# test.protocol: NCI Yeast Anticancer Drug Screen. Data for the mlh1 rad18 strain (AID 175)
# condition.notes: S. cerevisiae mlh1 rad18 strain growth inhibition; at 5.0 µM (retest, dose inferred, filed as 0.5); stronger effect = higher value
The panel holds about 79,000 compounds, 15% with a hit somewhere; the sample as a whole holds those more often.
parameter: growth inhibition (%)

>>> df
                                    compound          parameter  unit_name  meas_value
 0               CC(C)COP(=O)(O)OCC(C)C.[Al]  growth inhibition          %          -2
 1  c1ccc([CH2][Pb]([c]2ccccc2)([c]2ccccc2)[c]2ccccc2)cc1  growth inhibition          %          97
 2  CC(=O)O[C@H]1CC[C@H]2[C@@H]3CC[C@H]4CC(=O)CC[C@@H]4[C@H]3CC[C@]12C  growth inhibition          %          -1
 3  C/C(=N\N=C(\[Se])N1CCN(c2ccccn2)CC1)c1ccccn1  growth inhibition          %          59
 4          COC(=O)C(C)(C)[n+]1c(C)cc(C)cc1C  growth inhibition          %          -1
 5  CNCC(O)c1cn(C)c2ccccc12 (stereo not drawn)  growth inhibition          %           0
 6  OC1(c2ccccc2)CC2CCC(C1)N2CCCC(O)(c1ccccc1)c1ccccc1 (stereo not drawn)  growth inhibition          %          -7
 7  [Cl][Hg].c1ccc([As]c2ccc(-c3ccccc3)cc2)cc1 (stereo not drawn)  growth inhibition          %         100
 8  CC1(Cl)CC(C)(/C=C/Cl)C(Cl)CC1Cl (stereo not drawn)  growth inhibition          %           8
 9  C[C@]12CCC(=O)C=C1CC[C@@H]1C2CC[C@@]2(C)C1CC[C@@H]2OC(=O)C12OC1CCC2=O (stereo partly drawn)  growth inhibition          %         -21
10  CCOP(=O)(O)C(Nc1ccc(N=Nc2ccccc2)cc1)c1cccc(C(Nc2ccc(N=Nc3ccccc3)cc2)P(=O)(O)OCC)c1 (stereo not drawn)  growth inhibition          %           7
11                       c1ccc(NC2=NCCN2)nc1  growth inhibition          %         -13
12  CCCC[CH2][Pb]([CH2]CCCC)([CH2]CCCC)[O]C(C)=O  growth inhibition          %          99
